Assay: Confirmatory screen NINDS Rhodamine qHTS for Zika virus inhibitors (AID 1347161); note: potency is the fitted concentration of half-maximal effect; nearly all actives have a fitted effect of over 60% in size
Details: purified enzyme assay, Rhodamine110 substrate fluorescence, 15 min; series mostly up to 114 µM
Results filed as inconclusive are left out. Activity calls are given as the source filed them. Calls come from the whole dose curve; as a rule, active = well fitted inhibition curve with a large enough effect; inconclusive = small, poorly fitted or top-dose-only effect; inactive = no such curve, though single readings can be large or run the other way.
testReadout: Potency

Worked examples follow.
- compound: "COc1ccc(C2C(C(=O)O)C(C(=O)O)C2c2ccc(OC)cc2O[C@@H]2O[C@H](CO)[C@@H](O)[C@H](O)[C@H]2O)c(O[C@@H]2O[C@H](CO)[C@@H](O)[C@H](O)[C@H]2O)c1 (stereo partly specified)"
  Potency: "11.7 µM (active)"
- compound: "COc1cc(CCCO)ccc1O[C@@H]1O[C@H](CO)[C@@H](O)[C@H](O)[C@H]1O"
  Potency: "34.3 µM (active)"
- compound: "CC(C)=CCC[C@@](C)(O)[C@H]1CC[C@]2(C)[C@@H]1[C@H](O)CC1[C@@]3(C)CC[C@H](O[C@@H]4O[C@H](CO)[C@@H](O)[C@H](O)[C@H]4O[C@@H]4O[C@H](CO)[C@@H](O)[C@H](O)[C@H]4O)C(C)(C)[C@@H]3CC[C@]12C (stereo partly specified)"
  Potency: "16.5 µM (active)"
- compound: "Cc1ccccc1NC(=O)Nc1ccc(CN2C(=O)N([C@@H](CC(C)C)C(=O)N[C@@H](CC(=O)O)c3ccccc3)C(=O)C2(C)C)cc1"
  Potency: "27.8 µM (active)"
- compound: "COc1cc2c(c(O)c1OC/C=C(\\C)CC/C=C(/C)CCC=C(C)C)CN(C(CCC(=O)O)C(=O)O)C2=O (stereo unspecified)"
  Potency: "2.71 µM (active)"

Problem: Endpoint output: Potency of COc1cc(C)c(C(=O)OC2C(C)OC(OC3CCC(C)C4C3C=C(C)C3/C(C)=C\CC/C(C)=C/C5(C)C=C(C(=O)O)C(C)CC56OC(=O)/C(=C(\O)C34C)C6=O)C(O)C2O)c(OC)c1 (stereo unspecified) . Value?
Solution: 1.32 µM (active)
